# EXPERIMENTAL TARGET: human factor Xa (Homo sapiens, UniProt P00742)
# Construct: purchased Enzyme Research Laboratories
# Sequence (P00742 235-488 limits assumed): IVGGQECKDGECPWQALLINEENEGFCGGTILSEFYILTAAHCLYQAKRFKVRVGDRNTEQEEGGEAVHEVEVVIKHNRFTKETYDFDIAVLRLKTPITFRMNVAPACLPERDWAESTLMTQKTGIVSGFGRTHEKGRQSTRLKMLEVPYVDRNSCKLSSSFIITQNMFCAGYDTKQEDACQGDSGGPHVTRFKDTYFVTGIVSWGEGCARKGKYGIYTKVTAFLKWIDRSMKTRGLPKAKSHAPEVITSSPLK
# Sequence (P00742 41-179 partner limits assumed): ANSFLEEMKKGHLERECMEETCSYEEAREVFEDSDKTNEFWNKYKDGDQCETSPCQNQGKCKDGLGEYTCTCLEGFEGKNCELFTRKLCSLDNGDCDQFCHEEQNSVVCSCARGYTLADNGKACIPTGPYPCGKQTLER
# ASSAY DETAILS: chromogenic peptide substrate assay, inhibition of factor Xa
# Type: biochemical
# MEASUREMENT CONTEXT: human factor Xa 3 nM, chromogenic substrate S-2222, pH 7.8, room temperature; apparent Ki from IC50 by Cheng-Prusoff
# Method: Factor Xa activity was measured spectrophotometrically in microtiter plates in a final volume of 150 μl using the following conditions: Inhibition of human factor Xa (Enzyme Research Laboratories) was tested at an enzyme concentration of 3 nM using the chromogenic substrate S-2222 (Chromogenix AB, Mölndal, Sweden) at 200 nM. […] The velocity of the reaction was determined by the autoreader from the slope of the linear regression fit to 7 time points (1 minute). […]
Reported Ki values are given for each entry in this list.

Completed entries (count: 3):
compound=O=C(N[C@H]1C[C@@H](C(=O)Nc2ccc(-n3ccccc3=O)cc2F)C[C@@H]1O)c1ccc(Cl)s1 result="0.015 µM"
compound=O=C(N[C@H]1C[C@@H](C(=O)Nc2ccc(-n3ccncc3=O)cc2F)C[C@@H]1O)c1ccc(Cl)s1 result="0.018 µM"
compound="CCO[C@H]1C[C@H](C(=O)Nc2ccc(-n3ccccc3=O)cc2F)C[C@@H]1NC(=O)c1ccc(Cl)s1 [Example 13B]" result="0.006 µM"

Any idea what Ki was measured for O=C(NC[C@H]1C[C@H](C(=O)Nc2ccc(-n3ccccc3=O)cc2F)C[C@@H]1O)c1ccc(Cl)s1 (racemic) [Example 15C] ?
0.03 µM

This collection of values is drawn from patent US7678917B2.
